The measurements presented in this section are drawn from patent US9394331B2.

Test system: HCV replicon
ASSAY COMMENT: HCV replicon assay (Clone A cells and ET-lunet cells, HCV RNA by real time PCR)
Type: cell-based, hepatitis C virus
MEASUREMENT PARAMETERS: Table 3; HCV 1b replicon; read-out: EC50, anti-HCV 1b activity
Attribute: log10 of EC50
All values: base-10 log of EC50 in nM.

Below, 5 compounds whose answers are already recorded.
>>> measured_number("COc1nc(N)nc2c1ncn2C1OC(COP(=O)(N[C@@H](C)C(=O)OC(C)C)Oc2ccccc2)[C@@H](O)[C@]12CCO2 (stereo partly shown) [compound 118]")
3.17
>>> measured_number("COc1nc(N)nc2c1ncn2C1OC(COP(=O)(N[C@@H](C)C(=O)OC(C)C)Oc2ccccc2)[C@@H](O)[C@]12CCO2 (stereo partly shown) [compound 119]")
3.66
>>> measured_number("COc1nc(N)nc2c1ncn2C1OC(COP(=O)(N[C@@H](C)C(=O)OCC(C)(C)C)Oc2ccccc2)[C@@H](O)[C@]12CCO2 (stereo partly shown) [compound 121]")
3.97
>>> measured_number("COc1nc(N)nc2c1ncn2C1OC(COP(=O)(N[C@@H](C)C(=O)OCC(C)C)Oc2ccccc2)[C@@H](O)[C@]12CCO2 (stereo partly shown) [compound 124]")
2.75
>>> measured_number("COc1nc(N)nc2c1ncn2C1OC(COP(=O)(N[C@@H](C)C(=O)OCc2ccccc2)Oc2ccccc2)[C@@H](O)[C@]12CCO2 (stereo partly shown) [compound 131]")
4.07

Which log10 of EC50 value belongs to COc1nc(N)nc2c1ncn2C1OC(COP(=O)(N[C@@H](C)C(=O)OCC(C)C)Oc2ccccc2)[C@@H](O)[C@]12CCO2 (stereo partly shown) [compound 125] ?
3.65

Thanks! And CCCCOC(=O)[C@H](C)NP(=O)(OCC1OC(n2cnc3c(OC)nc(N)nc32)[C@@]2(CCO2)[C@@H]1O)Oc1ccccc1 (stereo partly shown) [compound 127] ?
3.49

Thanks! And COc1nc(N)nc2c1ncn2C1OC(COP(=O)(N[C@@H](C)C(=O)OCC(C)(C)C)Oc2ccccc2)[C@@H](O)[C@]12CCO2 (stereo partly shown) [compound 120] ?
2.59

Thanks! And CCCCOC(=O)[C@H](C)NP(=O)(OCC1OC(n2cnc3c(OC)nc(N)nc32)[C@@]2(CCO2)[C@@H]1O)Oc1ccccc1 (stereo partly shown) [compound 126] ?
2.44

Thanks! And COc1nc(N)nc2c1ncn2C1OC(COP(=O)(N[C@@H](C)C(=O)OC2CCCC2)Oc2ccccc2)[C@@H](O)[C@]12CCO2 (stereo partly shown) [compound 129] ?
2.83
